- Test system: Haemophilus influenzae (H. influenzae) 49247
- assay protocol: Antibacterial activity, MIC, H. influenzae 49247
- Type: cell-based
- measurement context: Haemophilus influenzae; H. influenzae 49247; read-out: MIC 49247
endpoint name: MIC

{"columns": ["compound", "test result"],
 "data": [
  ["CCc1c(-c2ccc(N3C[C@H]4CCC[C@@H](N(C)C)[C@H]4C3)cc2)[nH]c(=O)c(C(=O)O)c1O.Cl", "12.5 to 150 µg/mL"],
  ["C=CCN(CC=C)c1ccc(-c2[nH]c(=O)c(C(=O)O)c(O)c2CC)cc1", "12.5 to 150 µg/mL"],
  ["CCc1c(-c2ccc(N3CCC(C(C)(C)N)C3)cc2)[nH]c(=O)c(C(=O)O)c1O.Cl (centres unmarked)", "3.5 to 12.5 µg/mL"],
  ["CCc1cc(C(=O)O)c(=O)[nH]c1-c1ccc(N2CCCC2c2ccccc2)cc1 (centres unmarked)", "< 1 µg/mL"],
  ["CCc1cc(C(=O)O)c(=O)[nH]c1-c1ccc(N2CCN(C(=O)OC(C)(C)C)CC2)c(F)c1", "1 to 3.5 µg/mL"],
  ["CN(C)c1ccc(-c2[nH]c(=O)c(C(=O)O)cc2CN)cc1.Cl", "12.5 to 150 µg/mL"],
  ["CCc1cc(C(=O)O)c(=O)[nH]c1-c1ccc(N2CC[C@H](N)C2)cc1.Cl", "< 1 µg/mL"],
  ["CCc1c(-c2ccc(N3C[C@H]4CC[C@H](N)[C@H]4C3)cc2)[nH]c(=O)c(C(=O)O)c1O.O=C(O)C(F)(F)F", "12.5 to 150 µg/mL"]
]}

* * *

- Test system: control Gram-negative E. coli 25922 strain
- assay protocol: Antibacterial activity, microbroth dilution MIC, E. coli 25922
- Assay type: cell-based, Escherichia coli
- measurement context: Escherichia coli; E. coli 25922, microbroth dilution; read-out: MIC, 25922
Where a name gives a salt, the structure may show the parent alone.

{"columns": ["molecule", "MIC"],
 "data": [
  ["CCc1cc(C(=O)O)c(=O)[nH]c1-c1ccc(N2CC3CCCCC3(C#N)C2)cc1 (centres unmarked)", "12.5 to 150 µg/mL"],
  ["CCc1c(-c2ccc(N3CCCC3)c(OC)c2)[nH]c(=O)c(C(=O)O)c1O", "12.5 to 150 µg/mL"],
  ["CCc1c(-c2ccc(N3CC4CCCN(C(=O)OC(C)(C)C)C4C3)cc2)[nH]c(=O)c(C(=O)O)c1O (centres unmarked)", "12.5 to 150 µg/mL"],
  ["CCc1cc(C(=O)O)c(=O)[nH]c1-c1ccc(N2CC[C@@H](F)C2)cc1", "1 to 3.5 µg/mL"],
  ["CCc1c(-c2ccc(N3CC4CC4(N)C3)cc2)[nH]c(=O)c(C(=O)O)c1O.Cl (centres unmarked)", "1 to 3.5 µg/mL"],
  ["CCc1c(-c2ccc(N3CCCC3)cc2C)[nH]c(=O)c(C(=O)O)c1O", "12.5 to 150 µg/mL"],
  ["CCc1c(-c2ccc(N3CCC(N(C)C)C3)nc2)[nH]c(=O)c(C(=O)O)c1O (centres unmarked)", "12.5 to 150 µg/mL"],
  ["CCc1c(-c2ccc(N3CC[C@@H](O)C3)cc2F)[nH]c(=O)c(C(=O)O)c1O", "1 to 3.5 µg/mL"],
  ["CCc1cc(C(=O)O)c(=O)[nH]c1-c1ccc(N2CCCC2)cc1F", "1 to 3.5 µg/mL"],
  ["CCc1cc(C(=O)O)c(=O)[nH]c1-c1ccc(N2CCCC2c2nccs2)cc1 (centres unmarked)", "12.5 to 150 µg/mL"],
  ["CCc1c(-c2ccc(N3C[C@@H]4[C@@H](N)[C@@H]4C3)cc2)[nH]c(=O)c(C(=O)O)c1O [Cpd 269, hydrochloride]", "< 1 µg/mL"],
  ["CCc1cc(C(=O)O)c(=O)[nH]c1-c1ccc(N2CCC(CNC)C2)cc1.Cl (centres unmarked)", "12.5 to 150 µg/mL"],
  ["CCc1cc(C(=O)O)c(=O)[nH]c1-c1ccc(N2CC(NC(=O)N(C)CC(=O)O)C2)cc1", "12.5 to 150 µg/mL"],
  ["CCc1c(-c2ccc(N3CC4CCCNC4C3)cc2)[nH]c(=O)c(C(=O)O)c1O.Cl (centres unmarked)", "< 1 µg/mL"],
  ["CCc1cc(C(=O)O)c(=O)[nH]c1-c1ccccc1N1CCCC1", "12.5 to 150 µg/mL"],
  ["CCc1cc(C(=O)O)c(=O)[nH]c1-c1ccc(N2CCC(N)CC2)cc1", "12.5 to 150 µg/mL"],
  ["CCc1c(-c2ccc(C3=CCNCC3)cc2)[nH]c(=O)c(C(=O)O)c1O", "12.5 to 150 µg/mL"],
  ["CCc1cc(C(=O)O)c(=O)[nH]c1-c1ccc(C)cc1", "12.5 to 150 µg/mL"],
  ["CCc1cc(C(=O)O)c(=O)[nH]c1-c1ccc(N(C)C)cc1F", "1 to 3.5 µg/mL"],
  ["CCc1c(-c2ccc(N3C[C@@H]4[C@H](C3)[C@H]4N(C)C)cc2)[nH]c(=O)c(C(=O)O)c1O [Cpd 271, hydrochloride]", "3.5 to 12.5 µg/mL"],
  ["CCc1c(-c2ccc(N3CCC(N(C)C)C3)cc2F)[nH]c(=O)c(C(=O)O)c1O (centres unmarked)", "3.5 to 12.5 µg/mL"],
  ["CCc1cc(C(=O)O)c(=O)[nH]c1-c1ccc(N(C)CCOC2CCCCO2)cc1 (centres unmarked)", "3.5 to 12.5 µg/mL"],
  ["CCc1cc(C(=O)O)c(=O)[nH]c1-c1ccc(N2CC3NCCOC3C2)cc1.Cl (centres unmarked)", "3.5 to 12.5 µg/mL"],
  ["CCc1cc(C(=O)O)c(=O)[nH]c1-c1ccc(CN2CCCCC2)n1C", "12.5 to 150 µg/mL"],
  ["CCc1c(-c2ccc(N3CCCC3)s2)[nH]c(=O)c(C(=O)O)c1O", "12.5 to 150 µg/mL"],
  ["CCc1c(-c2ccc(N3CC4CC3CN4)cc2)[nH]c(=O)c(C(=O)O)c1O.O=C(O)C(F)(F)F (centres unmarked)", "12.5 to 150 µg/mL"],
  ["CCc1c(-c2ccc(OC)cc2)[nH]c(=O)c(C(=O)O)c1O", "3.5 to 12.5 µg/mL"],
  ["CCc1cc(C(=O)O)c(=O)[nH]c1-c1ccc(N2C[C@H]3CN(C)C[C@H]3C2)cc1.Cl", "3.5 to 12.5 µg/mL"],
  ["CN(C)c1ccc(-c2ccc(C(=O)O)c(=O)[nH]2)cc1", "12.5 to 150 µg/mL"],
  ["CCc1c(-c2ccc(N3CCOCC3)cn2)[nH]c(=O)c(C(=O)O)c1O", "12.5 to 150 µg/mL"],
  ["CCc1c(-c2ccc(N(C)C)cc2C)[nH]c(=O)c(C(=O)O)c1O", "12.5 to 150 µg/mL"],
  ["CCc1c(-c2ccc(N3C[C@H]4CCC[C@@H](NC)[C@H]4C3)cc2)[nH]c(=O)c(C(=O)O)c1O.Cl", "1 to 3.5 µg/mL"],
  ["CCc1c(-c2ccc(N3CCC(C)(CN)C3)cc2)[nH]c(=O)c(C(=O)O)c1O (centres unmarked)", "1 to 3.5 µg/mL"],
  ["CCc1c(-c2ccc(N3CCCCC3)cc2)[nH]c(=O)c(C(=O)O)c1O", "12.5 to 150 µg/mL"],
  ["CCc1c(-c2ccc(N3CCC(N(Cc4ccccc4)Cc4ccccc4)CC3)cc2)[nH]c(=O)c(C(=O)O)c1O", "12.5 to 150 µg/mL"]
]}

* * *

- Tested on: E. coli ELZ4251 (MDR clinical isolate)
- assay protocol: Antibacterial activity, MIC, MDR E. coli ELZ4251
- Type: cell-based, Escherichia coli
- measurement context: Escherichia coli, E. coli ELZ4251, MDR clinical isolate; read-out: MIC ELZ4251
MIC values, listed per item

{"columns": ["compound", "MIC"],
 "data": [
  ["CCc1cc(C(=O)O)c(=O)[nH]c1-c1ccc(N2C[C@H]3CC[C@@H](N)[C@H]3C2)cc1.O=C(O)C(F)(F)F [Cpd 202]", "12.5 to 150 µg/mL"],
  ["CCc1c(-c2ccc(N3CCC3)cc2)[nH]c(=O)c(C(=O)O)c1O [Cpd 83]", "12.5 to 150 µg/mL"],
  ["CCc1cc(C(=O)O)c(=O)[nH]c1-c1ccc(-n2cccc2)cc1 [Cpd 101]", "12.5 to 150 µg/mL"],
  ["CCc1c(-c2ccc(N3CCNCC3)cc2)[nH]c(=O)c(C(=O)O)c1O.O=C(O)C(F)(F)F [Cpd 105]", "12.5 to 150 µg/mL"],
  ["CCc1cc(C(=O)O)c(=O)[nH]c1-c1ccc(N(CC)CC)cc1 [Cpd 97]", "12.5 to 150 µg/mL"],
  ["CCc1cc(C(=O)O)c(=O)[nH]c1-c1ccc(Nc2ccccc2)cc1 [Cpd 155]", "12.5 to 150 µg/mL"],
  ["CCc1cc(C(=O)O)c(=O)[nH]c1-c1ccc(N(C)C)c(F)c1 [Cpd 93]", "12.5 to 150 µg/mL"],
  ["CC(C)c1c(-c2ccc(N(C)C)cc2)[nH]c(=O)c(C(=O)O)c1O [Cpd 96]", "12.5 to 150 µg/mL"],
  ["CCc1cc(C(=O)O)c(=O)[nH]c1-c1ccc(N(C)CC)cc1 [Cpd 160]", "12.5 to 150 µg/mL"],
  ["CCc1c(-c2ccc(N3C[C@H]4CC[C@H](N)[C@H]4C3)cc2)[nH]c(=O)c(C(=O)O)c1O.O=C(O)C(F)(F)F [Cpd 265]", "3.5 to 12.5 µg/mL"],
  ["CCc1cc(C(=O)O)c(=O)[nH]c1-c1ccc(N2CCC[C@@H]2COC)cc1 [Cpd 147]", "12.5 to 150 µg/mL"],
  ["O=C(O)c1cc(C2CC2)c(-c2ccc(N3CCCC3)cc2)[nH]c1=O [Cpd 164]", "12.5 to 150 µg/mL"],
  ["Cc1c(-c2ccc(N(C)C)cc2)[nH]c(=O)c(C(=O)O)c1O [Cpd 5]", "1 to 3.5 µg/mL"],
  ["CCc1cc(C(=O)O)c(=O)[nH]c1-c1ccc(N2C[C@H]3CN(Cc4ccccc4)C[C@H]3C2)cc1.Cl [Cpd 206]", "12.5 to 150 µg/mL"],
  ["CCc1cc(C(=O)O)c(=O)[nH]c1-c1ccc(N2CCCC2)cc1F [Cpd 38]", "12.5 to 150 µg/mL"],
  ["CCc1c(-c2ccc(N3CCC(N4CCCC4)C3)cc2)[nH]c(=O)c(C(=O)O)c1O.Cl (stereo not shown) [Cpd 257]", "1 to 3.5 µg/mL"],
  ["Cc1cc(C(=O)O)c(=O)[nH]c1-c1ccc(N(C)C)cc1 [Cpd 4]", "12.5 to 150 µg/mL"],
  ["CCc1cc(C(=O)O)c(=O)[nH]c1-c1ccc(N2CCC(N(C)C)C2)cc1 (stereo not shown) [Cpd 149]", "12.5 to 150 µg/mL"],
  ["CCc1c(-c2ccc(N3CCC(CNC)C3)cc2)[nH]c(=O)c(C(=O)O)c1O.Cl (stereo not shown) [Cpd 254]", "3.5 to 12.5 µg/mL"]
]}

Numbers sourced from patent US9650395B2.
